Data provenance is paper PMC7910394.

System: LNCaP tumor xenograft-bearing CB17-SCID mice
Type: in vivo, mouse
ASSAY_SETUP: 24 h p.i.
API: label(entry) gives Yes if the entry's Biodistribution Tumor is strictly smaller than 0.1 % ID/g; on equality or larger values it gives No.

COMPOUND	ASSIGNED_CLASS
CSCC[C@H](NC(=O)CC[C@H](NC(=O)N[C@@H](CCC(=O)N[C@H](CCCNC(=O)CCC(=O)NCCCC[C@@H](NC(=O)[C@@H](CNC(=O)c1ccc([Si](F)(C(C)(C)C)C(C)(C)C)cc1)NC(=O)CN1CCN(CC(=O)[O-])CCN(CC(=O)[O-])CCN(CC(=O)[O-])CC1)C(=O)O)C(=O)O)C(=O)O)C(=O)O)C(=O)O.[Lu+3] [^natLu/[^177Lu]Lu-5]	Yes
CC(C)(C)[Si](F)(c1ccc(C(=O)NC[C@@H](NC(=O)CN2CCN(CC(=O)[O-])CCN(CC(=O)[O-])CCN(CC(=O)[O-])CC2)C(=O)N[C@H](CCCCNC(=O)CCC(=O)NCCC[C@@H](NC(=O)CC[C@H](NC(=O)O[C@@H](CCC(=O)O)C(=O)O)C(=O)O)C(=O)O)C(=O)O)cc1)C(C)(C)C.[Lu+3] [^natLu/[^177Lu]Lu-3]	No
CCCCCCC(NC(=O)C(CCC(=O)O)NC(=O)NC(CCC(=O)NC(CCCNC(=O)CCC(=O)NCCCCC(NC(=O)C(CNC(=O)c1ccc([Si](F)(C(C)(C)C)C(C)(C)C)cc1)NC(=O)CN1CCN(CC(=O)[O-])CCN(CC(=O)[O-])CCN(CC(=O)[O-])CC1)C(=O)O)C(=O)O)C(=O)O)C(=O)O.[Lu+3] (centres unmarked) [^natLu/[^177Lu]Lu-7]	No

Below 0.1 % ID/g on Biodistribution Tumor? Entry CC(C)(C)[Si](F)(c1ccc(C(=O)NC[C@@H](NC(=O)CN2CCN(CC(=O)[O-])CCN(CC(=O)[O-])CCN(CC(=O)[O-])CC2)C(=O)N[C@H](CCCCNC(=O)CCC(=O)NCCC[C@@H](NC(=O)CC[C@H](NC(=O)N[C@@H](CCc2nnn[nH]2)C(=O)O)C(=O)O)C(=O)O)C(=O)O)cc1)C(C)(C)C.[Lu+3] [^natLu/[^177Lu]Lu-11] No

====

Recorded Biodistribution Intestine by entry
Tested on: LNCaP tumor xenograft-bearing CB17-SCID mice
Type: in vivo, mouse
ASSAY_SETUP: 24 h p.i.
Description: All animal experiments were conducted in accordance with general animal welfare regulations in Germany (German animal protection act, as amended on 18.05.2018, Art. 141 G v. 29.3.2017 I 626, approval no. 55.2–1-54-2532-71-13) and the institutional guidelines for the care and use of animals. […]
// units = % ID/g; emit number, no label

Briefly, Biodistribution Intestine measured for CC(C)(C)[Si](F)(c1ccc(C(=O)NC[C@@H](NC(=O)CN2CCN(CC(=O)[O-])CCN(CC(=O)[O-])CCN(CC(=O)[O-])CC2)C(=O)N[C@H](CCCCNC(=O)CCC(=O)NCCC[C@@H](NC(=O)CC[C@H](NC(=O)N[C@@H](CCc2nnn[nH]2)C(=O)O)C(=O)O)C(=O)O)C(=O)O)cc1)C(C)(C)C.[Lu+3] [^natLu/[^177Lu]Lu-11] : 0.52

Briefly, Biodistribution Intestine measured for CSCC[C@H](NC(=O)CC[C@H](NC(=O)N[C@@H](CCC(=O)N[C@H](CCCNC(=O)CCC(=O)NCCCC[C@@H](NC(=O)[C@@H](CNC(=O)c1ccc([Si](F)(C(C)(C)C)C(C)(C)C)cc1)NC(=O)CN1CCN(CC(=O)[O-])CCN(CC(=O)[O-])CCN(CC(=O)[O-])CC1)C(=O)O)C(=O)O)C(=O)O)C(=O)O)C(=O)O.[Lu+3] [^natLu/[^177Lu]Lu-5] : 0.55

# compound CC(C)(C)[Si](F)(c1ccc(C(=O)NC[C@@H](NC(=O)CN2CCN(CC(=O)[O-])CCN(CC(=O)[O-])CCN(CC(=O)[O-])CC2)C(=O)N[C@H](CCCCNC(=O)CCC(=O)NCCC[C@@H](NC(=O)CC[C@H](NC(=O)O[C@@H](CCC(=O)O)C(=O)O)C(=O)O)C(=O)O)C(=O)O)cc1)C(C)(C)C.[Lu+3] [^natLu/[^177Lu]Lu-3] ; its Biodistribution Intestine = 0.12

The compound listed as C#CC[C@H](NC(=O)N[C@@H](CCC(=O)N[C@H](CCCNC(=O)CCC(=O)NCCCC[C@@H](NC(=O)[C@@H](CNC(=O)c1ccc([Si](F)(C(C)(C)C)C(C)(C)C)cc1)NC(=O)CN1CCN(CC(=O)[O-])CCN(CC(=O)[O-])CCN(CC(=O)[O-])CC1)C(=O)O)C(=O)O)C(=O)O)C(=O)O.[Lu+3] [^natLu/[^177Lu]Lu-10] has a reported Biodistribution Intestine of 0.32

// recorded Biodistribution Intestine for CCCCCCC(NC(=O)C(CCC(=O)O)NC(=O)NC(CCC(=O)NC(CCCNC(=O)CCC(=O)NCCCCC(NC(=O)C(CNC(=O)c1ccc([Si](F)(C(C)(C)C)C(C)(C)C)cc1)NC(=O)CN1CCN(CC(=O)[O-])CCN(CC(=O)[O-])CCN(CC(=O)[O-])CC1)C(=O)O)C(=O)O)C(=O)O)C(=O)O.[Lu+3] (centres unmarked) [^natLu/[^177Lu]Lu-7] : 0.10
